# ASSAY REMARKS: folding stability dG unfold (combined trypsin and chymotrypsin); higher = more stable
# cutoff 10 kJ/mol applies to folding stability dG unfold; >= gives label 1, < gives label 0

>>> discrete_label("SAGGSAGGSASTITITTPSGEKVKVTLTSLPTPTTLATITVTSTGKTYTIVIAPDGTITLASAGGSAGGSAG [r3_15_JUSTAS]")
"label 1"
>>> discrete_label("SAGGGMTPVKKEYVVTLPVPPGMTEEEARELAERAAEELRPELEAKGLAYEVTFELSPEGLVTVTVVASAGG [r13_529_JUSTAS]")
"label 0"
>>> discrete_label("SAGGSVRIESIKWKRPPNGMFKIEIHVEAPPGDPDDPEKQERQAESVAKPIAKELQDEFGFKPIGPSAGGSA [r2_306_TrROS]")
"label 0"
>>> discrete_label("SMTVITAEPNLPPEKKAAVEAVRERVKANPDKPMDADEIKEFIKEEFGDPNFTILKVTIIPKAPPVVALSSA [r9_620_JUSTAS]")
"label 0"
>>> discrete_label("SAGGMKKYKIKVENLPPGARIITPDGREIKPGEEVEIELPEDVKEIYVILPDGKIVKVKVEEVEPEEESAGG [r13_441_TrROS_Hall]")
"label 1"
>>> discrete_label("SMSPEARALARELAERLRELFPGAEIEIRVEVEVNEDGEVTIRVEIRVRPAPPPEVRVVRDEDGRERRLRSA [r9_82_TrROS_Hall]")
"label 0"

Consider now this further sequence.
Identify whether the reported folding stability dG unfold of the following sequence is 10 kJ/mol or greater: MEITITETENGYRVEVKIEITVIDPKTGEPVPLEIPVEAFVPASDPDPEKAAKEAAEKALEEVLKALPEGLS [r1_414_JUSTAS] label 0
